- System: Zymoseptoria tritici (SEPTTR-184)
- Test Summary: Cyp51 dsRNA tile (fragment) foliar application bioassay (Example 6)
- Assay type: in vivo
- Test Context: 1 day protectant; calculated from disease control
Endpoint Name: ED50 (ppm) SEPTTR-184 1DP

>  <Molecule>
MgCyp51-T2: dsRNA tile of Zymoseptoria tritici Cyp51, 165 bp, location 48-212 (nucleic acid, listed as Zymoseptoria tritici) CCAGACCAGCCTCTGGAAACTTGTCGGACTTGGATTCCTCGCCTTCAGCACGCTCGCCATCCTCCTCAATGTCCTCTCACAACTTCTCTTCCGTGGCAAGTTGTCCGATCCGCCACTCGTATTCCACTGGGTGCCCTTCATCGGAAGCACCATCACATACGGCAT

>  <ED50 (ppm) SEPTTR-184 1DP>
<3.125 ppm

$$$$

May I ask what ED50 (ppm) SEPTTR-184 1DP has been recorded for MgCyp51-T7: dsRNA tile of Zymoseptoria tritici Cyp51, 111 bp, location 1490-1600 (nucleic acid, listed as Zymoseptoria tritici, long dsRNA tile, purified, chemistry not given here) CGACGATGGTTCGCGATTTCAAGTTTTACAATGTGGATGGCAGCGACAACGTGGTGGGTACGGATTACAGCAGTTTGTTCAGCCGGCCGCTGTCGCCGGCAGTAGTAAAGT ?
3.125 ppm

Also MgCyp51-T3: dsRNA tile of Zymoseptoria tritici Cyp51, 230 bp, location 450-679 (nucleic acid, listed as Zymoseptoria tritici) CGTCAAGTACGGCCTCACAACCTCTGCCCTCCAGTCCTACGTGACCTTGATCGCCGCCGAGACCCGCCAGTTCTTCGACCGCAACAACCCTCATAAGAAGTTCGCATCGACCAGCGGCACGATCGATCTCCCACCAGCCCTCGCCGAACTTACGATCTATACTGCCAGCCGATCATTGCAAGGAAAGGAAGTCCGCGAGGGCTTCGACTCGTCTTTCGCGGACCTCTACC ?
<3.125 ppm
